Tested on: UACC-257 melanoma
experiment-description: NCI tumour cell line growth inhibition, 48 h; in the data active means GI50 below about 0.43 µM; inactive means the rest
Bench note: report the call from active, inactive

Problem: Hey, what did the test say about CCNCCCn1c2c(c3ccc([N+](=O)[O-])cc3c1=O)C(=O)c1cc(OC)cnc1-2 ?
Result: active

Problem: Hey, what did the test say about C=C1C[C@@]2(C)C(CC[C@]3(C)C2CC=C2C4CC(C)(C)C[C@@H](OC(=O)/C(C)=C\C)[C@]4(C(=O)O)CC[C@]23C)C(C)(C)C1=O (stereo partly drawn) ?
Result: inactive

Problem: Hey, what did the test say about CCOC(=O)c1cc(C(=O)c2cc(OC)c(OC)c(OC)c2)n2ccccc12 ?
Result: inactive

###

A collection of molecules and their measured TGI
System: COLO 205 colon
experiment-description: NCI tumour cell line growth inhibition, 48 h
Enter your answer as a number in µM; do not include the unit.

> print(dat)
                               given.smiles  property.label  observed.measurement
1  C[C@]1(O)O[C@@H]2OCC[C@@H]2C2=C1C(=O)c1ccccc1C2=O             TGI                  53.9

# input for lookup
Problem: Dear colleague, I am looking for the recorded TGI of the following molecule: CN1CCN(c2ccc(C(=O)Nc3cc(-c4cccc(NS(=O)(=O)c5ccccc5)c4)[nH]n3)cc2)CC1
Result: 14.1

###

Tested on: U251 CNS
Bench note: report the call from active, inactive

> print(dat)
                               given.smiles  system.tested  assigned.class
1  C=C1C(=O)O[C@H]2[C@H]1CC/C(COC(=O)c1ccccc1)=C\CC[C@@]1(C)O[C@@H]21       U251 CNS        inactive

Problem: Hey, what did the test say about CCOC(=O)c1cc(C(=O)c2cc(OC)c(OC)c(OC)c2)n2ccccc12 ?
Result: active

Problem: Hey, what did the test say about COc1cc(OC)c(C(=O)/C=C/c2cccc(OC(C)=O)c2)cc1CC=C(C)C ?
Result: inactive

Problem: Hey, what did the test say about COc1ccc2c(c1)/C(=C/c1cc(OC)c(OC)c(OC)c1)C(=O)N2C ?
Result: inactive

Problem: Hey, what did the test say about CN(C)CCCn1c2nc(=O)[nH]c(=O)c-2nc2cc(Cl)c(Cl)cc21 ?
Result: inactive

###

System: PC-3 prostate
experiment-description: NCI tumour cell line growth inhibition, 48 h; in the data active = GI50 below about 0.43 µM; inactive = the rest
Bench note: report the call from active, inactive

> print(dat)
                                   compound  system.tested  assigned.class
1  NC1CCC(N[C@@H]2C[C@H]2c2ccccc2)CC1 (some centres undefined)  PC-3 prostate        inactive
2  Cc1ccc(Sc2sc(-c3ccccc3)nc2[P+](c2ccccc2)(c2ccccc2)c2ccccc2)cc1  PC-3 prostate          active
3  CCNCCCn1c2c(c3ccc([N+](=O)[O-])cc3c1=O)C(=O)c1cc(OC)cnc1-2  PC-3 prostate          active
4  Clc1ccc(Nc2ccnc(NCCCNc3ccnc4cc(Cl)ccc34)n2)cc1  PC-3 prostate        inactive
5  O=C(COc1cccc(/C=C2\CSc3ccccc3C2=O)c1)c1ccc(Cl)cc1  PC-3 prostate        inactive
6  CCCN(CCSSCCNc1nc(N(C)O)nc(N(C)O)n1)c1nc(N(C)O)nc(N(C)O)n1  PC-3 prostate        inactive
7    OCc1ccc(N(CCN2CCCC2)Cc2ccc(F)cc2)cc1Cl  PC-3 prostate        inactive
8  N#Cc1ccc2c(c1)C(=O)c1c-2n(CCCN)c(=O)c2cc([N+](=O)[O-])ccc12  PC-3 prostate          active

Now let's try a different one.
Problem: Hey, what did the test say about O=C(Nc1cccc(-n2cc(-c3ccncc3)c(-c3ccc(O)c(Cl)c3)n2)c1)Nc1cccc(C(F)(F)F)c1 ?
Result: inactive

###

A collection of compounds and their measured GI50
Test system: SF-539 CNS
experiment-description: NCI tumour cell line growth inhibition, 48 h

These solved cases illustrate the format of a correct answer.
> print(dat)
                                   compound  observed.measurement
1  O=C(COc1cccc(/C=C2\CSc3ccccc3C2=O)c1)c1ccc(Cl)cc1               3.05 µM
2  O=C(Nc1cccc(-n2cc(-c3ccncc3)c(-c3ccc(O)c(Cl)c3)n2)c1)Nc1cccc(C(F)(F)F)c1               1.64 µM
3  Fc1ccc2[nH]cc(SSc3c[nH]c4ccc(F)cc34)c2c1               3.77 µM
4  Cc1[nH]nc2c1N=C(c1ccccc1Cl)c1cc([N+](=O)[O-])ccc1N2              0.132 µM
5  O=C1CCS/C(=N\S(=O)(=O)c2ccc(N3N=C4c5ccccc5CC4C3c3cccs3)cc2)N1C(=O)c1ccccc1 (centres undefined)               2.38 µM
6  C1=Nc2ccccc2C=Nc2ccccc2C=Nc2ccccc2C=Nc2ccccc21.[Cl-].[Pt+2]               23.1 µM
7  Clc1ccc(Nc2ccnc(NCCCNc3ccnc4cc(Cl)ccc34)n2)cc1               1.67 µM
8  C=C1C(=O)O[C@H]2[C@H]1CC/C(COC(=O)c1ccccc1)=C\CC[C@@]1(C)O[C@@H]21              0.662 µM

Problem: Dear colleague, I am looking for the recorded GI50 of the following compound: Nc1ncnc2c1cnn2Cc1ccc(Cl)cc1
Result: 67.4 µM

###

Test system: U251 CNS
Bench note: report the call from t = active, f = inactive

> print(dat)
                                   compound  assigned.class
1  N#Cc1c(N)nc(N2CCOCC2)c(C#N)c1-c1ccccc1Cl               f

Problem: Hey, what did the test say about Cc1[nH]nc2c1N=C(c1ccccc1Cl)c1cc([N+](=O)[O-])ccc1N2 ?
Result: f

Problem: Hey, what did the test say about N#Cc1ccc2c(c1)C(=O)c1c-2n(CCCN)c(=O)c2cc([N+](=O)[O-])ccc12 ?
Result: t

###

System: UACC-62 melanoma
experiment-description: NCI tumour cell line growth inhibition, 48 h
property-label: TGI

> print(dat)
                                   molecule  observed.measurement
1  C=C1C(=O)O[C@@H]2[C@H](O)[C@@H](C)[C@@H]3C=CC(=O)[C@@]3(C)[C@H](OC(=O)C=C(C)C)[C@H]12               1.87 µM
2    c1ccc(-c2cc(-c3cccs3)c(-c3cccs3)o2)cc1              > 100 µM
3  O=C1CS/C(=N\S(=O)(=O)c2ccc(N3N=C4c5ccccc5CC4C3c3ccc(Cl)cc3)cc2)N1c1ccccc1 (stereo unspecified)               77.3 µM
4  CCNCCCn1c2c(c3ccc([N+](=O)[O-])cc3c1=O)C(=O)c1cc(OC)cnc1-2              0.168 µM
5           COc1ccccc1NC(=O)O/N=C(/Cl)C(C)C               37.4 µM

Problem: Dear colleague, I am looking for the recorded TGI of the following molecule: CC(NC(=O)C(N)CC(=O)O)NC(=O)N(C)C(C)(C)C (stereo unspecified)
Result: > 100 µM

Problem: Dear colleague, I am looking for the recorded TGI of the following molecule: CC(=O)N1c2ccccc2C(C)C1c1[nH]c2ccccc2c1C (stereo unspecified)
Result: 48.9 µM

Problem: Dear colleague, I am looking for the recorded TGI of the following molecule: NC1CCC(N[C@@H]2C[C@H]2c2ccccc2)CC1 (stereo partly specified)
Result: > 100 µM

Problem: Dear colleague, I am looking for the recorded TGI of the following molecule: CC(C)(C)[C@H]1CCC2(OCCO2)[C@](O)(CCCO)C1
Result: > 100 µM

Problem: Dear colleague, I am looking for the recorded TGI of the following molecule: Oc1ccccc1-c1n[nH]c(=S)n1/N=C/c1ccc(-c2ccc(Br)cc2)o1
Result: 40.3 µM

Problem: Dear colleague, I am looking for the recorded TGI of the following molecule: COc1ccc(-c2csc(NC(=O)c3cc(O)c(O)c(O)c3)n2)cc1
Result: > 33.3 µM

Problem: Dear colleague, I am looking for the recorded TGI of the following molecule: CC12CCC(C(Nc3ccccn3)C1=O)C2(C)C (stereo unspecified)
Result: > 100 µM

Problem: Dear colleague, I am looking for the recorded TGI of the following molecule: Cc1c(N=Cc2ccc(N(CCC#N)CCC#N)cc2)c(=O)n(-c2ccccc2)n1C
Result: > 100 µM

Problem: Dear colleague, I am looking for the recorded TGI of the following molecule: O=C1c2ccccc2-c2nc(/C=C/c3ccccc3)cc3c2c1nc1ccccc13
Result: 25.7 µM

Problem: Dear colleague, I am looking for the recorded TGI of the following molecule: Nc1ccc(Oc2ccc(C34CC5CC6C3CC3CC4C(C5)C6(c4ccc(Oc5ccc(N)c(O)c5)cc4)C3)cc2)cc1O
Result: 26.3 µM

Problem: Dear colleague, I am looking for the recorded TGI of the following molecule: Cc1ccc(Sc2sc(-c3ccccc3)nc2[P+](c2ccccc2)(c2ccccc2)c2ccccc2)cc1
Result: 1.25 µM

Problem: Dear colleague, I am looking for the recorded TGI of the following molecule: CC(C)c1ccc(NC(=S)NC(=O)c2ccccc2)cc1
Result: 30.7 µM

Problem: Dear colleague, I am looking for the recorded TGI of the following molecule: C=C(C)[C@@H]1CCC2=C[C@H](CC(C)=CC3=CC(C)=C(O3)[C@@H]1OC)OC2=O
Result: > 100 µM

Problem: Dear colleague, I am looking for the recorded TGI of the following molecule: CCOc1ccc2nc(NC(NC(=O)c3cccnc3)(C(F)(F)F)C(F)(F)F)sc2c1
Result: 91.6 µM

Problem: Dear colleague, I am looking for the recorded TGI of the following molecule: OCc1ccc(N(CCN2CCCC2)Cc2ccc(F)cc2)cc1Cl
Result: 29.1 µM

Problem: Dear colleague, I am looking for the recorded TGI of the following molecule: CC1(C)CCC(=O)NC1CC(=O)CC1NC(=O)CCC1(C)C (stereo unspecified)
Result: > 100 µM
